Entries annotated with measured inhibition
molecular target: DNA topoisomerase 1 (Homo sapiens); test: Inhibition of recombinant human DNA topoisomerase-1-mediated relaxation of supercoiled pBR322 at 100 uM after 30 mins using ethidium bromide staining by agarose gel electrophoresis
QUANTITY: inhibition (%)

CPD_SMILES | RESULT_VALUE
Oc1ccc(-c2cc(-c3ccc(Cl)cc3)nc(-c3cccs3)c2)cc1 | 38.8
Oc1cccc(-c2cc(-c3cccnc3)nc(-c3cccc(Cl)c3)c2)c1 | 27.6
Oc1cccc(-c2cc(-c3ccccc3)nc(-c3cccc(Cl)c3)c2)c1 | 11.5
Oc1cccc(-c2cc(-c3ccsc3)nc(-c3ccccc3Cl)c2)c1 | 0
Oc1cccc(-c2cc(-c3cccc(Cl)c3)nc(-c3ccco3)c2)c1 | 5.5
Oc1cccc(-c2cc(-c3cccnc3)nc(-c3ccccc3Cl)c2)c1 | 0
Oc1cccc(-c2cc(-c3ccc(Cl)cc3)nc(-c3cccnc3)c2)c1 | 2.8
Oc1ccc(-c2cc(-c3ccncc3)nc(-c3ccccc3Cl)c2)cc1 | 9.9
Oc1cccc(-c2cc(-c3cccc(Cl)c3)nc(-c3cccs3)c2)c1 | 7.6
Oc1cccc(-c2cc(-c3ccccn3)nc(-c3ccccc3Cl)c2)c1 | 0
Oc1ccc(-c2cc(-c3ccccc3)nc(-c3ccccc3Cl)c2)cc1 | 13.6
